Target: PDGF receptor tyrosine kinase (mouse PDGF-β) (Mus musculus, UniProt P05622)
Construct: PCR primers are designed to amplify a fragment of DNA that codes for the intracellular tyrosine kinase domain
Sequence (P05622 599-961 limits assumed): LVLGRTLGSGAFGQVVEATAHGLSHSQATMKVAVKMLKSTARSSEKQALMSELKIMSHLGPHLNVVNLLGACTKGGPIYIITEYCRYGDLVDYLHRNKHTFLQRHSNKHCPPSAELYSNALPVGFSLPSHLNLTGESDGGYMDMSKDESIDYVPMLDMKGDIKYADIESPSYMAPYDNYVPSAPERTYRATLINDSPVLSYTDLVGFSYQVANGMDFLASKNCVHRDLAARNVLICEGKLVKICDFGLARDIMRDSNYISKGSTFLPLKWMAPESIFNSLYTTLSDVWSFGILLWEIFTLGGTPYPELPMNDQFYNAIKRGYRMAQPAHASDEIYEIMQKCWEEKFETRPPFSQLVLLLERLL
Assay: PDGFr tyrosine kinase assay (poly glutamate-tyrosine phosphorylation)
Conditions: Table 1; 10 minutes at 25° C.
Where a name gives a salt, the structure may show the parent alone.
Measurement type: log10(IC50) (log10 of the value in nM)

{"Compound": "OCc1ccc2c(c1)ncn2-c1ccccc1 [Example 26, 5-(Hydroxymethyl)-1-phenylbenzimidazole]", "log10(IC50)": 4.07}
{"Compound": "Clc1ccc2c(c1)ncn2-c1ccccc1", "log10(IC50)": 3.60}
{"Compound": "C=CC(=O)Nc1ccc2c(c1)ncn2-c1ccccc1", "log10(IC50)": 3.72}
{"Compound": "COc1ccc2ncn(-c3ccccc3)c2c1", "log10(IC50)": 3.81}
{"Compound": "COc1ccc2c(c1)ncn2-c1ccccc1 [Example 13, Hydrochloride]", "log10(IC50)": 2.60}
{"Compound": "O=Cc1ccc2c(c1)ncn2-c1ccccc1", "log10(IC50)": 3.92}
{"Compound": "COC(=O)c1cc2c(cc1OC)ncn2-c1ccccc1 [Example 51, Hydrochloride]", "log10(IC50)": 2.95}
{"Compound": "Nc1ccc2c(c1)ncn2-c1ccccc1", "log10(IC50)": 3.43}
{"Compound": "Cc1ccc2c(c1)ncn2-c1ccccc1 [Example 12, Hydrochloride]", "log10(IC50)": 3.64}
{"Compound": "c1ccc(-n2cnc3cnccc32)cc1 [Example 22, Hydrochloride]", "log10(IC50)": 4.00}
{"Compound": "CC(=O)Nc1ccc2c(c1)ncn2-c1ccccc1 [Example 23, Hydrochloride]", "log10(IC50)": 3.52}
{"Compound": "CC(=O)Oc1ccc2c(c1)ncn2-c1ccccc1", "log10(IC50)": 3.26}
{"Compound": "CCOc1ccc2ncn(-c3ccccc3)c2c1", "log10(IC50)": 3.98}
{"Compound": "O=C(O)c1ccc2c(c1)ncn2-c1ccccc1 [Example 16, Hydrochloride]", "log10(IC50)": 3.97}
{"Compound": "c1ccc2c(c1)ncn2-c1ccncc1 [Example 10, dihydrochloride]", "log10(IC50)": 4.09}
{"Compound": "O=Cc1cccc(-n2cnc3ccccc32)c1 [Example 4, Hydrochloride]", "log10(IC50)": 3.83}
{"Compound": "CCOc1ccc2c(c1)ncn2-c1ccccc1 [Example 28, Hydrochloride]", "log10(IC50)": 2.30}
{"Compound": "c1ccc(-n2cnc3cc(OCCCCN4CCOCC4)ccc32)cc1 [Example 59, Dihydrochloride]", "log10(IC50)": 2.48}
{"Compound": "COc1ccc2c(c1)ncn2-c1ccc(N)cc1 [Example 45, Dihydrochloride]", "log10(IC50)": 2.48}
{"Compound": "CN(C)CCCCOc1ccc2c(c1)ncn2-c1ccccc1 [Example 58, Dihydrochloride]", "log10(IC50)": 2.30}
{"Compound": "OCCCCOc1ccc2c(c1)ncn2-c1ccccc1 [Example 57, Hydrochloride]", "log10(IC50)": 2.70}
{"Compound": "Clc1ccc2ncn(-c3ccccc3)c2c1", "log10(IC50)": 3.73}
{"Compound": "OCC(O)COc1ccc2c(c1)ncn2-c1ccccc1 (stereo not shown) [Example 33, Hydrochloride]", "log10(IC50)": 2.48}
{"Compound": "c1ccc(-n2cnc3cc(OCCN4CCOCC4)ccc32)cc1 [Example 38, Dihydrochloride]", "log10(IC50)": 2.85}
{"Compound": "O=Cc1ccc(-n2cnc3ccccc32)cc1", "log10(IC50)": 4.13}
{"Compound": "NC(=O)c1ccc2c(c1)ncn2-c1ccccc1 [Example 18, Hydrochloride]", "log10(IC50)": 3.20}
{"Compound": "CN(C)CCCOc1ccc2c(c1)ncn2-c1ccccc1 [Example 37, Dihydrochloride]", "log10(IC50)": 2.30}
{"Compound": "c1ccc(-n2cnc3cc(OCCCN4CCOCC4)ccc32)cc1 [Example 39, Dihydrochloride]", "log10(IC50)": 2.30}
{"Compound": "Nc1ccc(-n2cnc3ccccc32)cc1 [Example 8, Dihydrochloride]", "log10(IC50)": 3.75}
{"Compound": "CN(C)CCOc1ccc2c(c1)ncn2-c1ccccc1 [Example 36, Dihydrochloride]", "log10(IC50)": 3.18}
{"Compound": "NCCOc1ccc2c(c1)ncn2-c1ccccc1 [Example 35, Dihydrochloride]", "log10(IC50)": 2.85}
{"Compound": "COc1c(O)ccc2c1ncn2-c1ccccc1 [Example 62, Hydrochloride]", "log10(IC50)": 4.70}
{"Compound": "COc1cc2ncn(-c3ccccc3)c2cc1C=O [Example 54, Hydrochloride]", "log10(IC50)": 3.04}

All figures here come from patent US5990146A.
